assay_system: BiP NBD (Homo sapiens)
Sequence (P11021 19-406): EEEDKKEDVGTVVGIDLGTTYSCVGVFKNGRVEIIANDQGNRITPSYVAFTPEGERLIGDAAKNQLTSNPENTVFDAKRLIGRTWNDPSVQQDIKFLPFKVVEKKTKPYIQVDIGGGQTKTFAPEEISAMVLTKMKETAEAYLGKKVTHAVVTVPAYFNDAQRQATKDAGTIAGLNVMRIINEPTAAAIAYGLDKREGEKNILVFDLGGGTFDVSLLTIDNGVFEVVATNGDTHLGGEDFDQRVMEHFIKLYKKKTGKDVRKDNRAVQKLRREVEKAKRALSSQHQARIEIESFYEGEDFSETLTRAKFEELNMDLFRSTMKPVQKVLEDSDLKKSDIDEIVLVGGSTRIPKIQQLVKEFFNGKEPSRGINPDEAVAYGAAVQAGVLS
test_details: NMR titration (equilibrium methyl-TROSY) with phosphate
Assay type: binding
Design: His6 (N, cleaved yes); made in house; host or cells: E. coli BL21-(DE3)-Lemo, pET28a vector
condition_summary: KD4: Pi binding to NBD·ADP, 1 mM ADP
measured_property: pKd
When answering, recall that pKd equals minus log10 of the concentration in mol/L, and write that number alone.

Ask: Please list pKd recorded for the compound O=P(O)(O)O
Result: 3.55

----------
assay_system: UniProt P11021
test_details: Global kinetic fit (MCMC) of four NMR data sets (E1+E2, E1 only, E2 only, no recycling): functional cycle kinetic parameters
Type: biochemical
Set-up: His6 (N, cleaved yes); made in house; host or cells: E. coli BL21-(DE3)-Lemo, pET28a vector
condition_summary: Supplementary Fig 10a, time 53 min
measured_property: species (µM)
Numeric only. Scale: µM

Ask: Please list species recorded for the molecule Nc1ncnc2c1ncn2[C@@H]1O[C@H](COP(=O)(O)OP(=O)(O)OP(=O)(O)O)[C@@H](O)[C@H]1O
Result: 5001

Ask: Please list species recorded for the molecule CC(=O)C(=O)O [Pyruvate]
Result: 8621

Ask: Please list species recorded for the molecule O=P(O)(O)O[C@H]1O[C@H](CO)[C@@H](O)[C@H](O)[C@H]1O
Result: 8072

Ask: Please list species recorded for the molecule C=C(OP(=O)(O)O)C(=O)O
Result: 16928

Ask: Please list species recorded for the molecule O=P(O)(O)O
Result: 25
